Data origin, for the record: patent US6706664B1

Tested on: cotton
test description: Foliar spread test for upland field
Type: in vivo
Set-up: key: 0: normal development; 1: Less damaged; 2: Slightly damaged; 3: Moderately damaged; 4: Severely damaged; 5: All killed
stated conditions: foliar spray 500 ppm, 3 weeks, rank vs non-treated
Protocol: (0: normal development, 1: Less damaged, 2: Slightly damaged, 3: Moderately damaged, 4: Severely damaged, 5: All killed). […] The herbicidal effects were evaluated according to the evaluation method described in the above (1).
measured property: Effects Cotton
Form field (numeric): enter value without unit.

CCC(Oc1ccc(F)c(C(F)(F)F)c1)c1nc2cc(Br)ccc2o1 (stereo not shown)    3

stdin: Please give the measured Effects Cotton for this compound: CCC(Oc1cccc(C(F)(F)F)c1)c1nc2cc(C#N)ccc2o1 (stereo not shown)
stdout: 3

stdin: Item CCCC(Oc1ccc(F)c(C(F)(F)F)c1)c1nc2cc(Cl)ccc2o1 (stereo not shown) has what recorded Effects Cotton?
stdout: 3

stdin: Query: Effects Cotton; subject: CCC(Oc1ccc(F)c(C(F)(F)F)c1)c1nc2cc(NC(=O)C(F)(F)F)ccc2o1 (stereo not shown)
stdout: 0

stdin: For the compound CCC(Oc1cccc(C(F)(F)F)c1)c1nc2cc([N+](=O)[O-])ccc2o1 (stereo not shown) , what Effects Cotton is on record?
stdout: 3

stdin: Recorded Effects Cotton for CCC(Oc1ccc(F)c(C(F)(F)F)c1)c1nc2ccc(C(F)(F)F)cc2o1 (stereo not shown) , please?
stdout: 3

stdin: Given the compound CCC(Oc1ccc(F)c(C(F)(F)F)c1)c1nc2cc(Cl)ccc2o1 (stereo not shown) , what is its reported Effects Cotton?
stdout: 3

stdin: Looking for the measured Effects Cotton of CC(Oc1cccc(C(F)(F)F)c1)c1nc2ccc(C(F)(F)F)cc2o1 (stereo not shown) , can you help?
stdout: 1
